Data provenance: PubChem BioAssay (NCI)

System: SF-295 CNS
testDescription: NCI-60 one-dose screen, 48 h (100 = growth as untreated, 0 = no growth, -100 = all killed)
details: 10 µM unless noted
This is part of a sample that, as a whole, favours compounds with a hit. Of some 83,000 tested, about 20% had one in any assay.
Labelling: growth reported below 60% becomes MET; at or above becomes NOT MET.

> print(dat)
                                    molecule  systemtested    label
 1  CC(=O)c1cc(C(=O)c2ccc3c(c2)Sc2ccccc2N3)c2c(C)cccn12    SF-295 CNS      MET
 2  CCCCC(CCc1ccccn1)C(=O)c1ccccc1 (stereo unspecified)    SF-295 CNS  NOT MET
 3  COc1cccc(CC(C)=C(c2ccc(OCCCN(C)C)cc2)c2ccc(OCCCN(C)C)cc2)c1    SF-295 CNS      MET
 4    COc1ccc(Nc2ncnc3c2sc2nc(C)cc(C)c23)cc1    SF-295 CNS  NOT MET
 5  O=C1/C(=C\c2cccn2Cc2ccc(F)cc2)c2ccccc2N1c1c(Cl)cccc1Cl    SF-295 CNS  NOT MET
 6  COC(=O)/C=C/c1cc(OC(C)=O)c2c(c1)[C@@H](C(=O)OC)[C@H](c1ccc(OC(C)=O)c(OC(C)=O)c1)O2    SF-295 CNS      MET
 7  COc1cc(C2CC(c3ccc(Nc4ccnc5cc(Cl)ccc45)cc3)=NN2c2ccccc2)cc(OC)c1OC (stereo unspecified)    SF-295 CNS      MET
 8              Oc1ccc(CCCCCCc2ccc(O)cc2)cc1    SF-295 CNS  NOT MET
 9  COc1ccc(C(=O)C(CN(C)C)c2ccccc2)cc1 (stereo unspecified)    SF-295 CNS      MET
10  CC(C)c1[nH]ncc1-c1nc2ccc3[nH]ncc3c2c2c1CCCC2    SF-295 CNS      MET
11  COc1ccc(/C(=C\c2cc(OC)c(OC)c(OC)c2)C(=O)N2CCN(c3ccccc3)CC2)cc1O    SF-295 CNS  NOT MET
12   O=C(Cn1nncc1CN1C(=O)CSC1=O)Nc1ccc(F)cc1    SF-295 CNS  NOT MET
13  COc1cc2c(cc1C)NC(=O)/C2=C\c1c[nH]c2ccccc12    SF-295 CNS      MET
14  Cc1c(-c2ccc(-c3ccccc3F)cc2)nc2ccc(F)cc2c1C(=O)O    SF-295 CNS      MET
15  COc1ccc2c(c1)N(CCO)C1=C(C(=O)OC1)C2c1cccc(Br)c1 (stereo unspecified)    SF-295 CNS      MET
16  O=C(Nc1ccccc1)C(CCCCN1C(=O)c2ccccc2C1=O)N1C(=O)c2ccccc2C1=O (stereo unspecified)    SF-295 CNS  NOT MET
17  CNC(=O)c1cc(Oc2ccc(NC(=O)c3nc(S(C)(=O)=O)n(C)c3-c3ccc(F)cc3)cc2)ccn1    SF-295 CNS  NOT MET
18          Clc1ccc(Nc2ncnc3c2sc2ncccc23)cc1    SF-295 CNS      MET
19  CN(C)CCOc1nc2c3ccncc3cc(-c3cccc(Cl)c3)c2c2cnccc12    SF-295 CNS      MET
20  COc1ccc(-c2cn(-c3cccc(C(=O)/C=C/c4ccc(O)c(OC)c4)c3)c(=O)[nH]2)cc1    SF-295 CNS      MET
21        COC(=O)c1cc(Cl)cc([N+](=O)[O-])c1O    SF-295 CNS  NOT MET
